B1: library; a variant is named by its letters at N, in order (parent)
chain: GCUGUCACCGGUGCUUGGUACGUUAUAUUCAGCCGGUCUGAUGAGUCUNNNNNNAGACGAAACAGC

variants of: B1; assay: normalized RNA/DNA level without ligand (relative to sTRSVctl = 100) (log10 (% of sTRSVctl)); HEK293T overexpressing SLC46A1; higher = less ribozyme self-cleavage, higher mRNA level; conditions: without (6R,S)-folinic acid; ligand present: no
Measured Property: normalized RNA/DNA level without ligand (log10)

Consider the worked cases shown below.
AUCUGU :: 2
ACGAGU :: 2.03
UCUUCC :: 2.03
GGAUUU :: 2.02

For the variant "UGAGAU" , what normalized RNA/DNA level without ligand (log10) is on record?
1.83

Tell me the measured normalized RNA/DNA level without ligand (log10) of "UUCAAG" , please.
1.85

Look up normalized RNA/DNA level without ligand (log10): "ACCAUA"
1.99

normalized RNA/DNA level without ligand (log10) for "CCCUGA" ?
2.09
